System: SR leukemia
Experiment: NCI tumour cell line growth inhibition, 48 h
Quick rule: TGI of at least 20 µM means true, below that means false.

C=C(CN(C)C)C(=O)c1ccccc1Cl :: true
CNC(=O)NCCCCC(NC(=O)OCc1ccccc1)C(=O)OCc1ccccc1 (stereo not drawn) :: true
N#CC(C#N)[C@@H]1CCC=C(Sc2ccccc2)[C@H]1Sc1ccccc1 :: true
C#CCn1c2c(c3ccccc3c1=O)C(=O)c1ccccc1-2 :: true
COc1ccccc1NC(=O)C1=C(C)NC(C)=C(C(=O)Nc2ccccc2OC)C1c1ccc(C2C(C(=O)Nc3ccccc3OC)=C(C)NC(C)=C2C(=O)Nc2ccccc2OC)cc1 :: false
NC1=CC(=O)C(=O)c2ccccc21 :: true

# evaluate next
Query block: Could you verify whether the entry C=CCc1cccc(/C(O)=C/C(=O)/C=C/c2ccccc2Cl)c1O shows TGI of no less than 20 µM?
Result block: false

----------
The entries below come with measured TGI values attached.
Tested on: SK-MEL-5 melanoma
Test: NCI tumour cell line growth inhibition, 48 h

CN(C)CCSC(=Nc1ccccc1)n1cccc1 :: > 100 µM
Nc1ccccc1-n1c2c(c3ccccc3c1=O)C(=O)c1ccccc1-2 :: > 100 µM
COc1cc2c3c(n(CCCN=[N+]=[N-])c(=O)c2cc1OC)-c1ccc(NC(C)=O)cc1C3=O :: > 50 µM
CC(NNC(=S)N1CCN(c2ccccn2)CC1)c1cccc[n+]1[O-] (centres undefined) :: 34.8 µM

Test item COc1ccc(-n2nnc3c(C#N)c(C)c(-c4ccccc4)n3c2=O)cc1 ; SK-MEL-5 melanoma; reported TGI was 17 µM

# value of TGI, SK-MEL-5 melanoma, item CCOc1cc(CCNC)c2c(ccc3ccc(OC)c(O)c32)c1OC = 26.1 µM

Per the reported SK-MEL-5 melanoma data, [N-]=[N+]=Nc1nnc(CCCCc2nnc(N=[N+]=[N-])o2)o1 has TGI of > 100 µM

Reading of TGI for CC(=O)O[C@H]1C(=O)[C@@]2(C)[C@H]([C@H](OC(=O)c3ccccc3)[C@]3(O)C[C@H](OC(=O)[C@H](O)[C@@H](NC(=O)C(C)(O)C(C)O)c4ccccc4)C(C)=C1C3(C)C)[C@]1(OC(C)=O)CO[C@@H]1C[C@@H]2O (some centres undefined) with SK-MEL-5 melanoma: > 50 µM

Entry CC(CCCCNC(=O)OC(C)(C)C)NC(=O)NC(C)CCCCNC(=O)OC(C)(C)C (centres undefined) , SK-MEL-5 melanoma data, TGI value: > 100 µM

----------
Test system: SW-620 colon
Experiment: NCI tumour cell line growth inhibition, 48 h; in the data active = GI50 below about 0.43 µM; inactive = the rest
Please answer using one outcome listed in 1.0 (active), 0.0 (inactive)

C=CC(=O)OCCCS(=O)(=O)[O-].C=CC(=O)OCCCS(=O)(=O)[O-].NC1CCCCC1N.[Pt+4] :: 0.0
COc1ccc(C(=O)c2cc(C)c(OC)c(C)c2)c(OC)c1OC(=O)C(Cl)Cl :: 1.0
COc1ccc(-n2nc(C(=O)NCC(=O)Nc3nc4cc(OC)ccc4s3)c3ccccc3c2=O)cc1 :: 0.0
CN1CCC(n2cnc(-c3ccc(F)cc3)c2-c2ccnc(Nc3ccccc3)n2)CC1 :: 0.0
COc1ccc(/C=N/C2=NNC(C)(c3ccccc3O)N2C(Cc2c[nH]c3ccccc23)C(=O)O)cc1 (stereo unspecified) :: 0.0
COc1cc(-c2cn(-c3ccc(F)cc3)c(=O)[nH]2)cc(OC)c1OC :: 0.0
CC(=O)OCCC/C(=C/c1cc2ccccc2c2ccccc12)[N+](=O)[O-] :: 0.0
CCOC(=O)CC1C(CNC(=O)NC)OC(n2cnc3c(NC(=O)Nc4ccccc4)ncnc32)C1O[Si](C)(C)C(C)(C)C (stereo unspecified) :: 0.0

Query block: // outcome(item) with item = O=CCC(O)C(O)C(O)CO (stereo unspecified)
Result block: 0.0

Query block: Recorded test call requested for NCCNc1nc2ccc(F)cc2c2c(=O)c3cc(F)ccc3sc12
Result block: 0.0

Query block: // return assay outcome for CCN(CC)CCC(CNc1c(C)cnc2cc(Cl)ccc12)c1ccc(Cl)c(Cl)c1 (stereo unspecified)
Result block: 0.0

Query block: Assay outcome for COc1ccc(C#CC2=C(Br)C(=O)OC2)cc1 : what was it?
Result block: 0.0

Query block: Lab log entry: COc1ccccc1N1CCN(CC(O)Cn2c(=O)c3c(OC)nc(C)cc3c(=O)n2-c2ccccc2)CC1 (stereo unspecified) — outcome as called in the assay?
Result block: 0.0

Query block: Write down the call the test reported for this compound. Item: COc1ccc(-c2cncn2-c2ccc(-c3nc4cc(OC)c(OC)c(OC)c4s3)cc2)cc1N
Result block: 0.0

Query block: Given CCC1C[N+]2=C(c3cc(OC)c(OC)cc3CC2)c2c1cc1n2CCc2cc(OC)c(OC)cc2-1 (stereo unspecified) , state the outcome it received in this test.
Result block: 0.0

Query block: Recorded call for C=CC(=O)N1CCC(CNc2ncnc(N)c2-c2ccc(Oc3ccccc3)cc2)CC1 ?
Result block: 0.0

----------
Test system: UACC-62 melanoma
Assay: NCI tumour cell line growth inhibition, 48 h; in the data active = GI50 below about 0.43 µM; inactive = the rest
Select the matching outcome among class 1 (active), class 0 (inactive)

Solved cases below.
COC(=O)C[C@@H]1CC=CC(=O)/C1=C(O)/C=C/c1ccccc1 :: class 0
C=CC(=O)N1CCC(CNc2ncnc(N)c2-c2ccc(Oc3ccccc3)cc2)CC1 :: class 0
CCN(CC)CCOc1ccccc1-n1c(C)ccc1-c1ccccc1 :: class 0
Nc1n[nH]c2cc(F)c([C@@H]3Nc4c(F)cc5[nH]ncc5c4[C@H]4C5CCC(C5)[C@@H]34)cc12 (stereo partly specified) :: class 1
COc1ccc(OC)c(-c2nc3sc(C)cn3c2/C=C2\C(=O)N(C)c3ccccc32)c1 :: class 0

Query block: What outcome does the record of this test show for COC(=O)[C@]12CC[C@@H](C)[C@H](C)[C@@H]1C1=CC[C@@H]3[C@@]4(C)C(C=O)=C[C@@](C)(COC(=O)c5ccco5)C4=CC[C@@]3(C)[C@]1(C)CC2 ?
Result block: class 1

Query block: How was Cc1ccc(Nn2c(SCC(=O)Nc3nc(-c4ccccc4)cs3)nc(C)c2C)cc1 classified in this test?
Result block: class 0

Query block: Returns: the outcome recorded for O=C1Nc2cc(-c3ccc(O)cc3)ccc2/C1=C/c1ccc[nH]1 in this assay.
Result block: class 1

Query block: How did this test come out for Cc1cc(O)cc(-c2nn(C)cc2-c2cc(N3CCOCC3)nc(-c3cccnc3)n2)c1 ?
Result block: class 0

Query block: Recorded test outcome, item Clc1ccc2c(NCCNc3nc(N4CCCCC4)nc4ccccc34)ccnc2c1
Result block: class 0

Query block: Could you kindly confirm the outcome this assay logged for COc1ncc(-c2ccc3ncnc(Nc4cccc(Cl)c4)c3c2)cc1NS(C)(=O)=O ?
Result block: class 0

Query block: Hi, sorry to bother you, what did the test record for COc1ccc(C#CC2=C(Br)C(=O)OC2)cc1 ?
Result block: class 0

Query block: # fetch the recorded call for CC(C)CCCC(C)[C@H]1CCC2C3CC=C4C[C@@H](OC(=O)CC(CC(=O)[O-])C(=O)[O-])CC[C@]4(C)C3CC[C@@]21C.N.N.[Pt+4] (stereo partly specified) here
Result block: class 0

Query block: What did this assay record as the result for C=CC(=O)OCCCS(=O)(=O)[O-].C=CC(=O)OCCCS(=O)(=O)[O-].NC1CCCCC1N.[Pt+4] ?
Result block: class 0

Query block: Any idea what this test logged for COc1cc(-c2cn(-c3ccc(F)cc3)c(=O)[nH]2)cc(OC)c1OC ?
Result block: class 0

Query block: Which result was noted for this compound in the test: NC1=CC(=O)C(=O)c2ccccc21
Result block: class 0

Query block: I'd appreciate the recorded outcome for O=C(Cc1ccc(-c2ccc(OCCN3CCOCC3)cc2)cn1)NCc1ccccc1 from this test.
Result block: class 1

Query block: How was CCC1C[N+]2=C(c3cc(OC)c(OC)cc3CC2)c2c1cc1n2CCc2cc(OC)c(OC)cc2-1 (stereo unspecified) classified in this test?
Result block: class 0

Query block: Tell me the recorded outcome of this test for CCN(CC)CCC(CNc1c(C)cnc2cc(Cl)ccc12)c1ccc(Cl)c(Cl)c1 (stereo unspecified) .
Result block: class 0

Query block: Kindly provide the recorded test outcome for the following compound: COc1ccccc1CNC(=O)/C=C/c1ccc(O)c(O)c1
Result block: class 0

Query block: I would be grateful if you could indicate the recorded call for O=C1c2ccccc2-c2c1c1ccc3ccccc3c1n2-c1ccccc1 .
Result block: class 0

----------
Quick reference: TGI of the listed items.
System: M19-MEL melanoma
Assay: NCI tumour cell line growth inhibition, 48 h

OC1CCSc2ccccc21 (configuration not stated) :: > 100 µM
COC(=O)CCC(=O)Nc1cc(C)ccc1C :: > 100 µM
CC(=O)OCc1ncccc1C(OC(C)=O)OC(C)=O :: > 100 µM
CC(C(=O)c1ccc(O)cc1)C1(O)C(=O)Nc2c(Cl)cc(Cl)cc21 (configuration not stated) :: 57.6 µM
O=C(c1nc2ccc(Cl)cc2[nH]c1=O)C(O)c1ccco1 (configuration not stated) :: > 100 µM
NC(CCSCCF)C(=O)O (configuration not stated) :: > 100 µM
CN(C)C(=S)/N=C(\N)N(C)C :: > 100 µM
COc1ccc([C@H]2[C@@H]3CCc4ccccc4C3=NN2C(N)=S)cc1OC :: > 100 µM

Data point: Cc1cccc(/C=N/N=C(\N)NO)n1 ; TGI = > 100 µM

Reported TGI ( CC/C(=N/O)C(C)C(=O)CCC(=O)Nc1ccc(Cl)cc1 (configuration not stated) ) = > 100 µM

So, COc1ccc(C2S/C(=C\c3ccc([N+](=O)[O-])cc3)C(=O)N2NC(=O)Cc2ccccc2)cc1 (configuration not stated) ? Its TGI was > 100 µM

Lookup result for O=C(CC(=O)c1cccc2ccccc12)C(=O)Nc1nccs1 ; measured TGI: > 100 µM
